B1: tRNA (parent)
chain: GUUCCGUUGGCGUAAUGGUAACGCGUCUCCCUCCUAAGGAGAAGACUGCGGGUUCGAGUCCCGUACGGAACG

- Variants of: B1
- assay_protocol: yeast fitness relative to wild type (ratio to wild type); higher = fitter; tRNA-Arg(CCU), competitive growth, 37 C, YPD
Variants at the floor of the assay were thinned out.
value_type: yeast fitness

>>> obs_value("GUUCAGUUGACGUAAUGGUACCGAGUCUCCCUCCUAAGGAGAAGACUGCGGGUUCGAGUCCCGUCCGGAACG [C5A G10A A21C C24A A65C]")
"≤ 0.5"
>>> obs_value("GUUCCGUUGGCGUAAUGGUAAUGCGUCUCCCUCCUAUGGAGAAGACUGCGGGGUCGAGUCCCGUACGGAACG [C22U A37U U53G]")
"≤ 0.5"
>>> obs_value("GUUACGUUGGCGUAAUGGUAACGCGUCUCCCUCCUAAGGAGAUGACUGCGGGUUCGAGUCCUGUACGGAACG [C4A A43U C62U]")
0.791
>>> obs_value("GUUCCGGUCGCGUAAUGGUAACGCGUCUCCCUCCUAAGGAGAAGACUGCCGGUUCGAGUCCCGUACGGAACG [U7G G9C G50C]")
0.668
>>> obs_value("GUUCCGUUGGCGUAAUGGUAACGCGUUUCCCCCCUAAGGAGAAGACUGCGGGUUCGAGUCCCGUUCGGACCG [C27U U32C A65U A70C]")
"≤ 0.5"
>>> obs_value("GUUCCGUUGGCGUAAUGGUAACGCGUCUCCCUCCUAAGGAGAAGACUGGGGGUUCGCGUCCCGUACUGAACG [C49G A57C G67U]")
0.576
>>> obs_value("GUUGCGUUGGCGUAAUGGUAGCGCGUCUCCCUCCUAAGGAGAAGUCUGUGGGUUCGAGUCCCGCAUGGAACG [C4G A21G A45U C49U U64C C66U]")
"≤ 0.5"
>>> obs_value("GUUCCGUUGGCGUAAUGGUAACGCGUCUGCCUCCUAAGGAGAACACUGAGGGUUCGAGUCCCGCACGGAACG [C29G G44C C49A U64C]")
"≤ 0.5"
>>> obs_value("GUUCCGUUGCCGUAAUGGUAACGGGUCUCCCUCCUAAGGAGAAGACUGCAGGUUCGAGUCCCGUACGGAACG [G10C C24G G50A]")
"≤ 0.5"
>>> obs_value("GUUCCGUUGGCGUAAUGGAAACGCGUCUCCCUCCUAAGGAGAAGACUGCGGGUUCGAAUCCCGUACGGUACG [U19A G58A A69U]")
1.2
>>> obs_value("GUUUGGUUGGCGUAAUGGUAACGCGUCUUCCAUCUAAGGAGAAGACUGCGGGUUCGAGUCCCGUACGGAACG [C4U C5G C29U U32A C33U]")
"≤ 0.5"
